# System: A549 cells
# method: Cell migration assay (24-well transwell, laminin)
# Type: cell-based, human
# recordedConditions: Homo sapiens, A549, 6 h, laminin 10 μg/mL in lower well, test compounds 0.39˜100 μM, migrated cells counted, read-out: Inhibitory activity against cell migration
# key: entry, value: IC50

{"columns": ["molecule", "testTarget", "IC50"],
 "data": [
  ["COc1ccc(CCN(c2nc3ccc(Cl)c(F)c3s2)C(C)c2ccc(C(=O)O)cc2)cc1 (stereo not shown)", "A549 cells", "> 10 µM"],
  ["COc1ccc(CCN(c2nc3cc(F)c(F)cc3s2)C(C)c2ccc(C(=O)O)cc2)cc1 (stereo not shown)", "A549 cells", "> 10 µM"],
  ["Cc1cccc(CCN(Cc2ccc(C(=O)O)cc2)c2nc3cccc(F)c3s2)c1", "A549 cells", "> 10 µM"],
  ["CCC(c1ccc(C(=O)O)cc1)N(CCc1ccc(OC)c(F)c1F)c1nc2cccc(F)c2s1 (stereo not shown)", "A549 cells", "< 1 µM"]
]}
